The following compounds are listed with their measured Ratio CC50/IC50 values.
assay: Selectivity index, ratio of CC50 for human HepG2.2.15 cells to IC50 for HBV infected in human HepG2.2.15 cells assessed as inhibition of hepatitis B e antigen secretion; type: functional
Answer using only a numeral; do not append any unit.

Record excerpt, results attached:
given_smiles: C=C1CC[C@@H]2[C@](C)(COC(C)=O)[C@H](OC(C)=O)CC[C@@]2(C)[C@@H]1C/C=C1\C=COC1=O
recorded_value: 1.1
--
given_smiles: C=C1CC[C@@H]2[C@](C)(COC(C)=O)[C@H](O)CC[C@@]2(C)[C@@H]1C/C=C1\C=COC1=O
recorded_value: 1.1
--
given_smiles: C=C1CC[C@@H]2[C@](C)(CO)[C@H](OC(C)=O)CC[C@@]2(C)[C@@H]1C/C=C1\C=COC1=O
recorded_value: 3.6
--
given_smiles: C=C1CC[C@@H]2[C@](C)(COC(=O)c3cccs3)[C@H](O)CC[C@@]2(C)[C@@H]1C/C=C1\C=COC1=O
recorded_value: 125
--
given_smiles: C=C1CC[C@@H]2[C@](C)(COC(=O)c3cccs3)[C@H](OC(=O)c3cccs3)CC[C@@]2(C)[C@@H]1C/C=C1\C=COC1=O
recorded_value: 1.1
--
given_smiles: C=C1CC[C@@H]2[C@](C)(COC(=O)c3cccnc3)[C@H](O)CC[C@@]2(C)[C@@H]1/C=C/C1=CCOC1=O
recorded_value: 1.8
--
given_smiles: C=C1CC[C@@H]2[C@](C)(COC(=O)/C=C/c3ccccc3)[C@H](O)CC[C@@]2(C)[C@@H]1/C=C/C1=CCOC1=O
recorded_value: 6.3
--
given_smiles: C=C1CC[C@@H]2[C@](C)(COC(=O)c3ccccc3C(=O)O)[C@H](O)CC[C@@]2(C)[C@@H]1C/C=C1\C=COC1=O
recorded_value: 1.5

Moving on to another compound below.
Requested read-out: Ratio CC50/IC50. Entry: C=C1CC[C@@H]2[C@](C)(COC(=O)c3ccco3)[C@H](O)CC[C@@]2(C)[C@@H]1/C=C/C1=CCOC1=O
1.2
